Origin of values: paper PMC5330855

Biological target: hhIYD (Haliscomenobacter hydrossis, UniProt F4KU78)
Sequence (F4KU78 1-222): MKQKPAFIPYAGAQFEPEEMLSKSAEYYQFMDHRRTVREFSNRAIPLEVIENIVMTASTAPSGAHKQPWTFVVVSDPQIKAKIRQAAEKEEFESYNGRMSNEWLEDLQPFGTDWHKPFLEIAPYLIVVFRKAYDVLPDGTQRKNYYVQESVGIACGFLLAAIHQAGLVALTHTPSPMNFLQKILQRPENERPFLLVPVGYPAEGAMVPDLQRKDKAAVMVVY
Measured metric: pKd
Value format note: pKd is -log10 of concentration (mol/L); just state the number.

Provide measured pKd value, entry: N[C@@H](Cc1ccc(O)c(F)c1)C(=O)O [F-Tyr, 3-fluoro-L-tyrosine, reference compound]
4.34
